biological target: hcGAS (Homo sapiens, UniProt Q8N884); experiment: hcGAS LCMS assay (direct measurement of cGAMP production); format: biochemical; settings: 0.5 nM hcGAS, 100 μM ATP, 100 μM GTP, 25 nM dsDNA, 4 h incubation
Sequence (Q8N884 whole entry): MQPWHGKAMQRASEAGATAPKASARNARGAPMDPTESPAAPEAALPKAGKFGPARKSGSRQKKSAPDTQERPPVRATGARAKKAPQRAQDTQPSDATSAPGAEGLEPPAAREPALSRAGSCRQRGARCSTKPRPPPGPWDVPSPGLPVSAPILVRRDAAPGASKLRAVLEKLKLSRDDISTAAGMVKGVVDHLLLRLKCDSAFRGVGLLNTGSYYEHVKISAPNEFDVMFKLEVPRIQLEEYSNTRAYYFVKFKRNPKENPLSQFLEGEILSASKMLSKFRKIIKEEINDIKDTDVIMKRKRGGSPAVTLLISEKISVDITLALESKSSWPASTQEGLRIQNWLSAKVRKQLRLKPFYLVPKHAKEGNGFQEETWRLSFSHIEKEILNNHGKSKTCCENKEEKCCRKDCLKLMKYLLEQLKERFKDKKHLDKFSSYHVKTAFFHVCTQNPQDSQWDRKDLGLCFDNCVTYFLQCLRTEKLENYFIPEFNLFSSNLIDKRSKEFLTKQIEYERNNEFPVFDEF
pIC50: −log10 of the molar value.
Measured pIC50, listed per entry for reference.
Measurement Kind: pIC50

[[record]]
compound = "COCC(COC)Nc1cc(C(=O)Nc2nnc(-n3nccc3C)s2)oc(=O)c1OC"
recorded_measurement = "7.70 to 8.30"

[[record]]
compound = "COCCOc1c(N[C@@H]2CCC[C@@H]2O)cc(C(=O)Nc2nnc(-c3c(Cl)ccn3C)s2)oc1=O"
recorded_measurement = "> 8.30"

[[record]]
compound = "COc1c(NC[C@H]2CCO2)cc(C(=O)Nc2nnc(-n3nccc3C)s2)oc1=O"
recorded_measurement = "7.70 to 8.30"

[[record]]
compound = "COc1c(N[C@@H]2CC[C@H](OC)C2)cc(C(=O)Nc2nnc(-n3nccc3C)s2)oc1=O (single isomer, unassigned)"
recorded_measurement = "7.70 to 8.30"

[[record]]
compound = "COC[C@@H](Nc1cc(C(=O)Nc2nnc(-n3nccc3C)s2)oc(=O)c1OC)C1CC1 (single isomer, unassigned)"
recorded_measurement = "> 8.30"

[[record]]
compound = "COc1c(N2C[C@H](OC)[C@H](OC)C2)cc(C(=O)Nc2nnc(-n3nccc3C)s2)oc1=O"
recorded_measurement = "7.70 to 8.30"

[[record]]
compound = "COC[C@H](Nc1cc(C(=O)Nc2nnc(-n3nccc3C)s2)oc(=O)c1OC)C(C)C"
recorded_measurement = "> 8.30"

[[record]]
compound = "COc1c(N2C[C@H](OC)[C@@H](OC)C2)cc(C(=O)Nc2nnc(-n3nccc3C)s2)oc1=O (racemic)"
recorded_measurement = "7.70 to 8.30"

[[record]]
compound = "COc1c(N2CCC[C@H]2CC#N)cc(C(=O)Nc2nnc(-n3nccc3C)s2)oc1=O"
recorded_measurement = "7.70 to 8.30"

[[record]]
compound = "COc1c(N2C[C@@H](OC)CC2=O)cc(C(=O)Nc2nnc(-n3nccc3C)s2)oc1=O"
recorded_measurement = "7.70 to 8.30"

[[record]]
compound = "COc1c(N[C@@H](C)[C@H](C)OC)cc(C(=O)Nc2nnc(-n3nccc3C)s2)oc1=O"
recorded_measurement = "6.70 to 7.22"

[[record]]
compound = "CC[C@H](COC)Nc1cc(C(=O)Nc2nnc(-n3nccc3C)s2)oc(=O)c1OC (single isomer, unassigned)"
recorded_measurement = "7.22 to 7.70"

[[record]]
compound = "COC[C@@H](C)Nc1cc(C(=O)Nc2nnc(-c3c(Cl)ccn3C)s2)oc(=O)c1OC"
recorded_measurement = "> 8.30"

[[record]]
compound = "COc1c(NC23CC(C(C)(C)O)(C2)C3)cc(C(=O)Nc2nnc(-n3nccc3C)s2)oc1=O"
recorded_measurement = "7.70 to 8.30"

[[record]]
compound = "COc1c(N2CC[C@@H](O)C2)cc(C(=O)Nc2nnc(-n3nccc3C)s2)oc1=O"
recorded_measurement = "7.70 to 8.30"

[[record]]
compound = "COc1c(N[C@@H]2CCC[C@@H]2O)cc(C(=O)Nc2nnc(-n3nccc3C)s2)oc1=O [Compound 112]"
recorded_measurement = "> 8.30"

[[record]]
compound = "COc1c(N2CC[C@H](O)C2)cc(C(=O)Nc2nnc(-n3nccc3C)s2)oc1=O"
recorded_measurement = "7.70 to 8.30"

[[record]]
compound = "COc1c(N[C@H]2CCOC2)cc(C(=O)Nc2nnc(-n3nccc3C)s2)oc1=O"
recorded_measurement = "7.70 to 8.30"

[[record]]
compound = "COc1c(N[C@@H]2CCC[C@@H]2C#N)cc(C(=O)Nc2nnc(-n3nccc3C)s2)oc1=O (single isomer, unassigned)"
recorded_measurement = "> 8.30"

[[record]]
compound = "COC[C@@H](Cc1ccccc1)Nc1cc(C(=O)Nc2nnc(-n3nccc3C)s2)oc(=O)c1OC"
recorded_measurement = "7.70 to 8.30"

[[record]]
compound = "COc1c(N[C@H]2CC[C@H]2O)cc(C(=O)Nc2nnc(-c3c(Cl)ccn3C)s2)oc1=O (single isomer, unassigned)"
recorded_measurement = "> 8.30"

[[record]]
compound = "COC[C@@H](C)Nc1cc(C(=O)Nc2nnc(-c3sccc3Cl)s2)oc(=O)c1OC"
recorded_measurement = "7.70 to 8.30"

[[record]]
compound = "COc1c(N2CCCS2(=O)=O)cc(C(=O)Nc2nnc(-n3nccc3C)s2)oc1=O"
recorded_measurement = "7.22 to 7.70"

[[record]]
compound = "COc1c(N[C@H]2COC[C@@H]2OC)cc(C(=O)Nc2nnc(-n3nccc3C)s2)oc1=O"
recorded_measurement = "7.70 to 8.30"

[[record]]
compound = "COc1c(N[C@H]2CC[C@H]2OCC(F)F)cc(C(=O)Nc2nnc(-n3nccc3C)s2)oc1=O (single isomer, unassigned)"
recorded_measurement = "7.70 to 8.30"

[[record]]
compound = "COc1c(N(C)[C@@H]2CCC[C@@H]2OC)cc(C(=O)Nc2nnc(-n3nccc3C)s2)oc1=O (racemic)"
recorded_measurement = "7.70 to 8.30"

[[record]]
compound = "COc1c(N[C@@H]2CCCC[C@H]2OC)cc(C(=O)Nc2nnc(-n3nccc3C)s2)oc1=O"
recorded_measurement = "7.70 to 8.30"

[[record]]
compound = "COc1c(NC[C@H](C)OC)cc(C(=O)Nc2nnc(-n3nccc3C)s2)oc1=O"
recorded_measurement = "7.70 to 8.30"

[[record]]
compound = "COc1c(NC[C@H](C)OC)cc(C(=O)Nc2nnc(-c3c(Cl)ccn3C)s2)oc1=O"
recorded_measurement = "> 8.30"

[[record]]
compound = "COC[C@H]1CCC[C@H]1Nc1cc(C(=O)Nc2nnc(-n3nccc3C)s2)oc(=O)c1OC (single isomer, unassigned)"
recorded_measurement = "≤ 6.70"


These measurements were taken from patent US20240270740A1.
